Tested on: PPARg homodimer (NR concentration 180 nM)
Assay Protocol: PBM binding z-score (relative to random genomic background probes); higher = stronger binding; sequences stand for … in GC…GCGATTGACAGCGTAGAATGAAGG
PBM binding z-score: recorded values
Quick one: just the number, no unit, thanks!

Request the reported PBM binding z-score associated with "CCTTACGGGTCACTCCAGTTTATAGCATCGGAGT"
2.32

Request the reported PBM binding z-score associated with "GCCACTGGGGCAAAGCAGGTTACCATAAGGTTGG"
0.322

Request the reported PBM binding z-score associated with "AGCGAAAGGTCGTGAGGTGAGTATACAGAAAGGC"
1.38

Request the reported PBM binding z-score associated with "CAGCCTAGGTCAGGGCCCGTATAGGAGGAACGTT"
0.811

Request the reported PBM binding z-score associated with "TCTTGTAGATCAATAGAGGTTAAGAAGGTGCGCT"
0.274

Request the reported PBM binding z-score associated with "ATATGTAGGTTATCGGTTCATTCAGTTTGCGCAT"
2.66

Request the reported PBM binding z-score associated with "TCGAGTAGGTTACCAATGGGGTATTCAGCTTTCT"
-0.0597
